// provenance: ChEMBL document CHEMBL4000211

# Tested on: A2780S
# ASSAY SUMMARY: Antiproliferative activity against human A2780S cells at 30 uM after 48 hrs by MTT assay relative to control
# Type: functional
Note to self: values exactly at 30% are satisfied. So inhibition at 30 µM at or above 30% is satisfied, below is not satisfied.

# SMILES REPRESENTATION, CATEGORY LABEL
measured = [
    ("CC[C@@H]1C(C=O)=C[C@H]2[C@@H](c3ccccc3O[C@@H]2CC)[C@@]12C(=O)Nc1ccccc12", "satisfied"),
    ("C[C@@H]1C(C=O)=C[C@H]2[C@@H](c3ccccc3O[C@@H]2C)[C@@]12C(=O)Nc1ccc(F)cc12", "not satisfied"),
    ("C[C@@H]1C(C=O)=C[C@H]2[C@@H](c3ccccc3OC2(C)C)[C@@]12C(=O)Nc1ccccc12", "not satisfied"),
    ("C[C@@H]1C(C=O)=C[C@H]2[C@@H](c3ccccc3O[C@@H]2C)[C@@]12C(=O)N(C)c1ccccc12", "not satisfied"),
    ("C[C@@H]1C(C=O)=C[C@H]2[C@@H](c3cc([N+](=O)[O-])ccc3O[C@@H]2C)[C@@]12C(=O)Nc1ccccc12", "not satisfied"),
    ("C[C@@H]1C(C=O)=C[C@H]2[C@@H](c3cccc(F)c3O[C@@H]2C)[C@@]12C(=O)Nc1ccccc12", "not satisfied"),
    ("C[C@@H]1C(C=O)=C[C@H]2[C@@H](c3cc(Cl)ccc3O[C@@H]2C)[C@@]12C(=O)Nc1ccccc12", "not satisfied"),
    ("Cc1ccc2c(c1)[C@]1(C(=O)N2)[C@H](C)C(C=O)=C[C@H]2[C@H]1c1ccccc1O[C@@H]2C", "not satisfied"),
    ("C[C@@H]1C(C=O)=C[C@H]2[C@@H](c3ccccc3O[C@@H]2C)[C@@]12C(=O)Nc1ccccc12", "not satisfied"),
    ("C[C@@H]1C(C=O)=C[C@H]2[C@@H](c3ccccc3N[C@@H]2C)[C@@]12C(=O)Nc1ccccc12", "satisfied"),
    ("COc1ccc2c(c1)O[C@H](C)[C@H]1C=C(C=O)[C@@H](C)[C@]3(C(=O)Nc4ccccc43)[C@H]21", "not satisfied"),
    ("Cc1ccc2c(c1)[C@@H]1[C@H](C=C(C=O)[C@@H](C)[C@]13C(=O)Nc1ccccc13)[C@@H](C)O2", "not satisfied"),
    ("C[C@@H]1C(C=O)=C[C@H]2[C@@H](c3cc(Br)ccc3O[C@@H]2C)[C@@]12C(=O)Nc1ccccc12", "satisfied"),
    ("C[C@@H]1C(C=O)=C[C@H]2[C@@H](c3cc(F)ccc3O[C@@H]2C)[C@@]12C(=O)Nc1ccccc12", "not satisfied"),
]

---

# key: entry, value: pIC50
# System: BGC-823
# ASSAY SUMMARY: Antiproliferative activity against human BGC823 cells after 48 hrs by MTT assay
# Type: functional, cell-based
# STUDY CONDITIONS: BGC-823, 48 h
pIC50: −log10 of the molar value.
REPORTED PROPERTY: pIC50

# SMILES REPRESENTATION, TARGET ENTITY, RESULT
records = [
    ("C[C@@H]1Oc2ccc3ccccc3c2[C@@H]2[C@@H]1C=C(C=O)[C@@H](C)[C@]21C(=O)Nc2ccccc21", "BGC-823", "< 4.52"),
    ("C[C@@H]1C(C=O)=C[C@H]2[C@@H](c3ccccc3O[C@@H]2C)[C@@]12C(=O)N(c1ccccc1)c1ccccc12", "BGC-823", 4.59),
    ("Cc1ccc2c(c1)[C@]1(C(=O)N2)[C@H](C)C(C=O)=C[C@H]2[C@H]1c1ccccc1O[C@@H]2C", "BGC-823", "< 4.52"),
    ("C[C@@H]1C(C=O)=C[C@H]2[C@@H](c3cc(Cl)ccc3O[C@@H]2C)[C@@]12C(=O)Nc1ccccc12", "BGC-823", "< 4.52"),
]
